- target_under_test: human mGluR5a receptors (Homo sapiens (Human), UniProt P41594)
- Sequence (P41594 other isoform, or with tags, fused parts or gaps): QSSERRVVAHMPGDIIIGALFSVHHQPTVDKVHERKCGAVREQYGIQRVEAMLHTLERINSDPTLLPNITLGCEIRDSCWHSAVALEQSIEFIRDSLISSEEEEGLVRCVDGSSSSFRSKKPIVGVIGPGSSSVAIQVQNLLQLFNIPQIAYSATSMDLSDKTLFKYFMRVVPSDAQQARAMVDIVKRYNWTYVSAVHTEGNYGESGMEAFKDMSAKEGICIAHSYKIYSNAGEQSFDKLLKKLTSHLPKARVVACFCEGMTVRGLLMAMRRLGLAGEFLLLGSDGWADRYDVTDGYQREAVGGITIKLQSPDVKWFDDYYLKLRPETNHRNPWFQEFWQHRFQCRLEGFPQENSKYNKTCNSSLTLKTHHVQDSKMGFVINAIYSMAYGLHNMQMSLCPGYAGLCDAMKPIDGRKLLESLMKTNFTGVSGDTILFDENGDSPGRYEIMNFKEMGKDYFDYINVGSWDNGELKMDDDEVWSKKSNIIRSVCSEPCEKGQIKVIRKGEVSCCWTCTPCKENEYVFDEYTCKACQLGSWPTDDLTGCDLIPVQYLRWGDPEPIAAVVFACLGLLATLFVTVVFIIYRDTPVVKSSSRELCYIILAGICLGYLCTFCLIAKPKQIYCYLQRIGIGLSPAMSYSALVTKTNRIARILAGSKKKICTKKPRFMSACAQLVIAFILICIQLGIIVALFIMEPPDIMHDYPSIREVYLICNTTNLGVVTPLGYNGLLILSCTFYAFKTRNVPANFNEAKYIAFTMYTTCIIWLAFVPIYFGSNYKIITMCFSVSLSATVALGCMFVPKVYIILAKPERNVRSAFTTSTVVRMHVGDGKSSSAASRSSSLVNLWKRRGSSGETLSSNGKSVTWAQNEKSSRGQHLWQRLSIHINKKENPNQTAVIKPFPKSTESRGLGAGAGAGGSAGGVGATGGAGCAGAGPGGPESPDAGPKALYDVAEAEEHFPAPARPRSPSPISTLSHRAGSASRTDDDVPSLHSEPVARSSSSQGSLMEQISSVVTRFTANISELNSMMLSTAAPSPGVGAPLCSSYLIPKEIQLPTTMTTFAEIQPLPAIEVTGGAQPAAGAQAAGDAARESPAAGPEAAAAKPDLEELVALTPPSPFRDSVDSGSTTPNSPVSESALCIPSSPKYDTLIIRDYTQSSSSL
- run_description: inhibition of glutamate-induced elevation of intracellular calcium in L(tk-) cells expressing human mGluR5a
- setup_conditions: glutamate-induced intracellular calcium elevation, L(tk-) cells expressing human mGluR5a; read-out: mGluR5 IC50
pIC50: −log10 of the molar value.
value_kind: pIC50

Solved entries:
molecule | value_kind | measured_result
COCc1cn(C2=NCC(=O)N3CCc4c(cc(F)cc4C4CC4)C3=C2)cn1 [Example 99k] | pIC50 | 8.52
CCc1cn(C2=NCC(=O)N3CCc4c(cccc4C4CCCO4)C3=C2)cn1 (racemic) | pIC50 | 7.28

(P) O=C1CN=C(n2cnc(C(F)(F)F)c2)C=C2c3cccc(I)c3CCN12
(Q) Cc1cn(C2=NCC(=O)N3CCc4c(cccc4-c4ccncc4)C3=C2)cn1
(R) CCc1cn(C2=NCC(=O)N3CCc4c(cccc4-c4ccco4)C3=C2)cn1
(S) O=C1CN=C(n2cnc(C3CC3)n2)C=C2c3cccc(-c4ncccc4F)c3CCN12 [Example 88c]
(T) CC(C)n1cc(C2=NCC(=O)N3CCc4c(cccc4-n4cccn4)C3=C2)cn1
Would you mind ranking these molecules by ascending pIC50? # respond with the labels, arranged in the requested order P, S, Q, T, R
(P: 6.27, S: 6.57, Q: 6.84, T: 7.49, R: 8.05)

====

- target_under_test: human mGluR5a receptors (Homo sapiens (Human))
- run_description: inhibition of glutamate-induced elevation of intracellular calcium in L(tk-) cells expressing human mGluR5a
- setup_conditions: glutamate-induced intracellular calcium elevation, L(tk-) cells expressing human mGluR5a; read-out: mGluR5 IC50
pIC50: −log10 of the molar value.
value_kind: pIC50

molecule | pIC50
COc1cccc2c1CCN1C(=O)CN=C(c3ccn(C)n3)C=C21 | 6.77
CC(O)c1cn(C2=NCC(=O)N3CCc4c(cccc4C4CC4)C3=C2)cn1 (stereo not drawn) | 8.70
CC(=O)c1cccc2c1CCN1C(=O)CN=C(n3cnc(C4CCC4)c3)C=C21 | 7.46
COc1cn(C2=NCC(=O)N3CCc4c(cccc4C4CC4)C3=C2)cn1 [Example 123d] | 7.96
Cc1cnc(-c2cccc3c2CCN2C(=O)CN=C(n4cnc(C5CC5)c4)C=C32)o1 | 6.88
COc1cccc2c1CCN1C(=O)CN=C(c3cccs3)C=C21 | 7.36

(A) CC(C)n1cc(C2=NCC(=O)N3CCc4c(I)cccc4C3=C2)cn1
(B) COCc1cn(C2=NCC(=O)N3CCc4c(cccc4-c4ncc(C)s4)C3=C2)cn1
Parameter metric = pIC50. Return the lower-valued option from A and B . State the label of the item chosen. B
(B: 7.49, A: 7.85)

====

- target_under_test: human mGluR5a receptors (Homo sapiens (Human), UniProt P41594)
- run_description: inhibition of glutamate-induced elevation of intracellular calcium in L(tk-) cells expressing human mGluR5a
- setup_conditions: glutamate-induced intracellular calcium elevation, L(tk-) cells expressing human mGluR5a; read-out: mGluR5 IC50
value_kind: IC50 (nM)

Solved entries:
molecule | target_under_test | measured_result
COc1cccc(C2=NCC(=O)N3CCc4c(cccc4C(C)(C)O)C3=C2)c1 | human mGluR5a receptors (Homo sapiens (Human), UniProt P41594) | 235
N#Cc1cn(C2=NCC(=O)N3CCc4c(I)cccc4C3=C2)cn1 | human mGluR5a receptors (Homo sapiens (Human), UniProt P41594) | 4300

(1) O=C1CN=C(n2cnc(C3CC3)c2)C=C2c3cccc(-c4cncs4)c3CCN12 [Example 88d]
(2) CCc1cn(C2=NCC(=O)N3CCc4c(cccc4-c4ccc(F)cc4)C3=C2)cn1
(3) O=C1CN=C(c2cccs2)C=C2c3cccc(Cl)c3CCN12
(4) O=C1CN=C(n2cnc(C3CC3)c2)C=C2c3ccnc(C4CC4)c3CCN12 [Example 110a]
(5) O=C1CN=C(n2cnc(-c3ccno3)c2)C=C2c3cccc(C4CC4)c3CCN12 [Example 123b]
Would you mind ranking these molecules by ascending IC50? # respond with the labels, arranged in the requested order 5, 2, 1, 3, 4
(5: 1 nM, 2: 12 nM, 1: 31 nM, 3: 90 nM, 4: 328 nM)

(1) O=C1CN=C(n2cnc(C3CC3)n2)C=C2c3cccc(-c4nccs4)c3CCN12 [Example 88g]
(2) COc1cccc(C2=NCC(=O)N3CCc4c(ccc(Cl)c4OC)C3=C2)c1
(3) Cn1ccc(C2=NCC(=O)N3CCc4c(cccc4N4CCOCC4)C3=C2)n1
Would you mind ranking these molecules by ascending IC50? # respond with the labels, arranged in the requested order 1, 3, 2
(1: 17 nM, 3: 35 nM, 2: 82 nM)

====

- target_under_test: human mGluR1 (Homo sapiens (Human), UniProt Q13255)
- Sequence (Q13255 19-1194): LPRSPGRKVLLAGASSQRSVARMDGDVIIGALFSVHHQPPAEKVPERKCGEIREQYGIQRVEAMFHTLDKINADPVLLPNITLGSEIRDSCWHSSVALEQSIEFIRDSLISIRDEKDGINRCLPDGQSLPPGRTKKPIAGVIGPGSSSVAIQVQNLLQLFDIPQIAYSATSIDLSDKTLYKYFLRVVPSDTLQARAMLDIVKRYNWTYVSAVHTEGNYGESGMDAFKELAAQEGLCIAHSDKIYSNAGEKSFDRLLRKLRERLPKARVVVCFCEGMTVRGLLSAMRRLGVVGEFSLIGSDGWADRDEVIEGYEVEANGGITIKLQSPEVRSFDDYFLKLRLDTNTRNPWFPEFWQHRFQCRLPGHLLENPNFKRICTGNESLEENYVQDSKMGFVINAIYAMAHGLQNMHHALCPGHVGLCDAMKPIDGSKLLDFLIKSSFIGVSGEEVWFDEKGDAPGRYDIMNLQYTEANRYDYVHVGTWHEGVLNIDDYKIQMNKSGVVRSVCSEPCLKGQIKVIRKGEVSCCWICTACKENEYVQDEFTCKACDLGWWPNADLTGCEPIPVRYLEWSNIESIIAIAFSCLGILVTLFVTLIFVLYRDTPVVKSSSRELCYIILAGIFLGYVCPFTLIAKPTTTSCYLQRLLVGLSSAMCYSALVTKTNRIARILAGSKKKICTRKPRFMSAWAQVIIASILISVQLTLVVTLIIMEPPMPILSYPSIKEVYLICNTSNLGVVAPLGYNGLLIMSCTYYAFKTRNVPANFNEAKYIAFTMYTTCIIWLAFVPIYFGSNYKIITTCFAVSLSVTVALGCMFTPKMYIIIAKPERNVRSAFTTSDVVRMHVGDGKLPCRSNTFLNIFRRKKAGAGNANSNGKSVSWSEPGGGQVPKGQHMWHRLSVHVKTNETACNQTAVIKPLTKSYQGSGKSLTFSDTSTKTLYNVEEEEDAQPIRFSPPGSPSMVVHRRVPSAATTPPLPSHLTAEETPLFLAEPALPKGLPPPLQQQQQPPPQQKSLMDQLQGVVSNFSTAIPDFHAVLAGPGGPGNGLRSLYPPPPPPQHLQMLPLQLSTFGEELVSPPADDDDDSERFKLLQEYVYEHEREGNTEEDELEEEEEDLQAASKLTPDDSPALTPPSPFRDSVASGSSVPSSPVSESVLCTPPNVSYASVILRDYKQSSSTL
- run_description: mGluR1 antagonism, L-glutamate induced intracellular calcium increase (FLIPR) in CHO cells stably expressing human mGluR1
- setup_conditions: L-glutamate induced intracellular calcium, CHO cells expressing human mGluR1, FLIPR
pIC50: −log10 of the molar value.
value_kind: pIC50

smiles_record | target_under_test | pIC50
O=C1CN=C(n2cnc(C3CC3)c2)C=C2c3cccc(-n4nccn4)c3CCN12 | human mGluR1 (Homo sapiens (Human), UniProt Q13255) | 5.83
Cc1cn(C2=NCC(=O)N3CCc4c(Cl)cccc4C3=C2)cn1 | human mGluR1 (Homo sapiens (Human), UniProt Q13255) | 5.80

====

Listed below: pIC50 values for each entry.
- target_under_test: human mGluR1 (Homo sapiens (Human), UniProt Q13255)
- run_description: mGluR1 antagonism, L-glutamate induced intracellular calcium increase (FLIPR) in CHO cells stably expressing human mGluR1
- Format: cell-based
- setup_conditions: L-glutamate induced intracellular calcium, CHO cells expressing human mGluR1, FLIPR
pIC50: −log10 of the molar value.

Solved entries:
compound | target_under_test | measured_result
CC(=O)c1cccc2c1CCN1C(=O)CN=C(n3cnc(C)c3)C=C21 [Example 116] | human mGluR1 (Homo sapiens (Human), UniProt Q13255) | < 5.00
COc1cccc(C2=NCC(=O)N3CCc4c(CN(C)C)cccc4C3=C2)c1 [Example 43] | human mGluR1 (Homo sapiens (Human), UniProt Q13255) | < 5.00
Cn1ccc(C2=NCC(=O)N3CCc4c(cccc4N4CCOCC4)C3=C2)n1 [Example 24] | human mGluR1 (Homo sapiens (Human), UniProt Q13255) | < 5.00
COc1cc(C2=NCC(=O)N3CCc4c(cccc4-c4cnccn4)C3=C2)ccn1 [Example 52] | human mGluR1 (Homo sapiens (Human), UniProt Q13255) | < 5.00
COCc1cn(C2=NCC(=O)N3CCc4c(cc(F)cc4C4CC4)C3=C2)cn1 [Example 99k] | human mGluR1 (Homo sapiens (Human), UniProt Q13255) | 6.25
COC1(c2cn(C3=NCC(=O)N4CCc5c(cccc5-c5ccc(F)nc5)C4=C3)cn2)CC1 [Example 106a] | human mGluR1 (Homo sapiens (Human), UniProt Q13255) | < 5.00

What value of pIC50 has been recorded for this entry: COC(C)c1cccc2c1CCN1C(=O)CN=C(c3ccn(C)n3)C=C21 (centres unmarked) [Example 47] 5.47

# repeat for Cc1cn(C2=NCC(=O)N3CCc4c(cccc4-c4cnc(C)o4)C3=C2)cn1 [Example 99a] < 5.00

====

- target_under_test: human mGluR5a receptors (Homo sapiens (Human), UniProt P41594)
- run_description: inhibition of glutamate-induced elevation of intracellular calcium in L(tk-) cells expressing human mGluR5a
- Assay type: cell-based
- setup_conditions: glutamate-induced intracellular calcium elevation, L(tk-) cells expressing human mGluR5a; read-out: mGluR5 IC50
pIC50: −log10 of the molar value.
value_kind: pIC50

compound | pIC50
COc1cc(C2=NCC(=O)N3CCc4c(I)cccc4C3=C2)ccn1 [Example 33] | 7.89

(1) COc1cccc(C2=NCC(=O)N3CCc4c(cccc4-c4ccccc4)C3=C2)c1 [Example 49]
(2) O=C1CN=C(n2cnc(C3CC3)c2)C=C2c3cccc(-n4nccn4)c3CCN12 [Example 138]
Lab note: record which item had the higher pIC50, 1 or 2 . State the label of the item chosen. 2
(2: 7.10, 1: 5.89)

====

- target_under_test: human mGluR1 (Homo sapiens (Human), UniProt Q13255)
- run_description: mGluR1 antagonism, L-glutamate induced intracellular calcium increase (FLIPR) in CHO cells stably expressing human mGluR1
- setup_conditions: L-glutamate induced intracellular calcium, CHO cells expressing human mGluR1, FLIPR
pIC50: −log10 of the molar value.
value_kind: pIC50

compound | pIC50
CO[C@H](C)c1cn(C2=NCC(=O)N3CCc4c(cccc4C4CC4)C3=C2)cn1 | 5.15
CCC(=O)c1cccc2c1CCN1C(=O)CN=C(n3cnc(C4CCC4)c3)C=C21 | 5.48
C=Cc1cccc2c1CCN1C(=O)CN=C(n3cnc(COC)c3)C=C21 | 5.80
O=C1CN=C(n2cnc(C3CC3)c2)C=C2c3cccc(-c4cccnc4F)c3CCN12 | 5.23
COCc1cn(C2=NCC(=O)N3CCc4c(C5CC5)ccc(F)c4C3=C2)cn1 [Example 99i] | 6.16
CCc1cn(C2=NCC(=O)N3CCc4c(cccc4-c4ccco4)C3=C2)cn1 | 6.77
COc1cccc(C2=NCC(=O)N3CCc4c(OC)cccc4C3=C2)c1 | 5.19
O=C1CN=C(n2cnc(C3CC3)c2)C=C2c3cccc(-c4cnc(F)nc4)c3CCN12 [Example 99f] | 4.92

(I) COc1cccc2c1CCN1C(=O)CN=C(c3ccn(C)n3)C=C21
(II) O=C1CN=C(n2cnc(CO)c2)C=C2c3cccc(I)c3CCN12
Parameter metric = pIC50. Return the lower-valued option from I and II . State the label of the item chosen. II
